- System Under Test: T1, Recombinant, purified TRBC2 (soluble αβ TCR with the β-chain constant domain TRBC2), SPR analyte (Homo sapiens, HA1.7 TCR with TRBC2)
- T1 construct: also called recombinant TRBC2; source: recombinant, purified
- Measurement Notes: SPR; Biacore T200; antibody as human IgG1 captured with an anti-human capture kit on CM5 to 200 RU; TRBC1 or TRBC2 as analyte, 150 s contact, 300 s dissociation, 30 μl/min, 25 °C, HBS-P+ pH 7.4; 1:1 Langmuir model
- Cond: both partners purified
Reported Kd by item:
Measured Quantity: Kd (nM)

* Mut7 (HuJovi-1 VH T28K, A96N), human IgG1 (antibody, V domains shown, as the VH of m1 with the stated changes; positions in Kabat numbering; constant region of the human IgG1 heavy chain; as the light chain of m1; IgG1; source: ExpiCHO, transient transfection, purified (MabSelect SuRe)) VH: QVQLVQSGAEVKKPGASVKVSCKASGYKFTGYVMHWVRQAPGQGLEWMGFINPYNDDIQSNERFRGRVTMTRDTSISTAYMELSRLRSDDTAVYYCARGNGYNFDGAYRFFDFWGQGTMVTVSS VL: DIVMTQSPLSLPVTPGEPASISCRSSQRLVHSNGNTYLHWYLQKPGQSPRLLIYRVSNRFPGVPDRFSGSGSGTDFTLKISRVEAEDVGVYYCSQSTHVPYTFGQGTKLEIK | 395
* Mut6 (HuJovi-1 VH A96N), human IgG1 (antibody, V domains shown, as the VH of m1 with the stated change; positions in Kabat numbering; constant region of the human IgG1 heavy chain; as the light chain of m1; IgG1; source: ExpiCHO, transient transfection, purified (MabSelect SuRe)) VH: QVQLVQSGAEVKKPGASVKVSCKASGYTFTGYVMHWVRQAPGQGLEWMGFINPYNDDIQSNERFRGRVTMTRDTSISTAYMELSRLRSDDTAVYYCARGNGYNFDGAYRFFDFWGQGTMVTVSS VL: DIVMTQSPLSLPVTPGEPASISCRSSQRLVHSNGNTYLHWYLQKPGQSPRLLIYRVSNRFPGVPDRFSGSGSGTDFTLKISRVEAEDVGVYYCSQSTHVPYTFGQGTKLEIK | 379
* KFN (Mut3; HuJovi-1 VH T28K, Y32F, A96N), human IgG1 (antibody, V domains shown, VH of KFN: as the VH of m1 (PDB 7AMP, 7AMQ) with the stated changes, positions in Kabat numbering; constant region of the human IgG1 heavy chain; as the light chain of m1; IgG1; also called Lys28/Phe32/Asn96; aTRBC2; source: ExpiCHO, transient transfection, purified (MabSelect SuRe)) VH: QVQLVQSGAEVKKPGASVKVSCKASGYKFTGFVMHWVRQAPGQGLEWMGFINPYNDDIQSNERFRGRVTMTRDTSISTAYMELSRLRSDDTAVYYCARGNGYNFDGAYRFFDFWGQGTMVTVSS VL: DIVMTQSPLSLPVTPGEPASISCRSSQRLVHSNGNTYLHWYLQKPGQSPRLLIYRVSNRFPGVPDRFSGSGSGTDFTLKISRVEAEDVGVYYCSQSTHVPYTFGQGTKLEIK | 479

The reported measurements were obtained from paper PMC10881500.
